Header: Ki / Carbonic anhydrase 2 (Homo sapiens) / multiple publications
measured_attribute: Ki (µM)

Answered cases to consult:
>>> print(df.to_string())
                                   molecule                          target_desc  measured_attribute  recorded_result
0  NS(=O)(=O)c1ccc(-n2nnc(S(=O)(=O)c3ccccc3)c2-c2ccccc2)cc1  Carbonic anhydrase 2 (Homo sapiens)                  Ki           0.0096
1         NS(=O)(=O)CCCCn1cc(COc2ccccc2)nn1  Carbonic anhydrase 2 (Homo sapiens)                  Ki             7.77

1. NS(=O)(=O)c1ccc(NCc2cn(CCCS(=O)(=O)[O-])nn2)cc1.[Na+]
2. NS(=O)(=O)c1ccc(N2N=C(c3ccc(Br)cc3)CC2c2ccccc2)cc1 (centres unmarked)
3. COc1cc(/C=C/C(=O)OCCCCCCN(C)CCCOC(=O)c2ccc(S(N)(=O)=O)cc2)cc(OC)c1OC
Task item: Parameters: sort_field (Ki), sort_dir (desc). A ranking is expressed here by listing the labels in the requested order.
Reply: 2, 3, 1

----------
Header: Ki / Carbonic anhydrase 2 (Homo sapiens, UniProt P00918) / multiple publications

Answered cases to consult:
                                smiles_text  measured_attribute  recorded_result
0          Oc1ccc(/C=C/c2ccc(Cl)cc2Cl)cc1Cl                  Ki         > 100 µM
1       O=C(CN1C(=O)CSC1=O)c1cc2ccccc2oc1=O                  Ki         > 100 µM
2  COC(=O)[C@H](Cc1ccccc1)NC(=O)N[C@@H](C)C(=O)Nc1ccc2c(C)cc(=O)oc2c1                  Ki          > 10 µM
3       O=C(COc1ccc2ccc(=O)oc2c1)NCc1ccccc1                  Ki          > 10 µM

Task item: Give Ki only, for NS(=O)(=O)c1ccc(-n2c(-c3ccccc3)nc(-c3ccccc3)c2-c2ccccc2)cc1 , using Carbonic anhydrase 2 (Homo sapiens, UniProt P00918) data.
Reply: > 100 µM

Task item: Give Ki only, for COc1cc(/C=C/C(=O)OCCCCCCCN(CCCOC(=O)c2c3ccccc3cc3ccccc23)CCCOc2ccc3ccc(=O)oc3c2)cc(OC)c1OC , using Carbonic anhydrase 2 (Homo sapiens, UniProt P00918) data.
Reply: > 10 µM

Task item: Give Ki only, for O=C1c2ccccc2C(=O)N1c1ccc(S(=O)(=O)Nc2ccccc2)cc1 , using Carbonic anhydrase 2 (Homo sapiens, UniProt P00918) data.
Reply: > 10 µM

Task item: Give Ki only, for O=C(NC(=S)NCc1ccc2c(c1)OCO2)c1cc2ccccc2oc1=O , using Carbonic anhydrase 2 (Homo sapiens, UniProt P00918) data.
Reply: > 10 µM

Task item: Give Ki only, for CCN1CCN(Cc2c(O)ccc3c(C)cc(=O)oc23)CC1 , using Carbonic anhydrase 2 (Homo sapiens, UniProt P00918) data.
Reply: > 10 µM

----------
Header: Ki / Carbonic anhydrase 2 (Homo sapiens, UniProt P00918) / multiple publications

Answered cases to consult:
In [3]: df
Out[3]:
                                smiles_text  recorded_result
0  O=C1c2ccccc2C(=O)N1c1ccc(S(=O)(=O)Nc2cccc(Cl)c2)cc1          > 10 µM
1  O=c1ccc2cc(-n3cc(CNc4cccc(Cl)c4)nn3)ccc2o1          > 50 µM

Now take the following compound into account.
Task item: Give Ki only, for O=C(NC(=S)N1CCOCC1)c1cc2ccccc2oc1=O , using Carbonic anhydrase 2 (Homo sapiens, UniProt P00918) data.
Reply: > 10 µM

----------
pKi: −log10 of the molar value.
Header: pKi / Carbonic anhydrase 2 (Homo sapiens) / multiple publications

Answered cases to consult:
>>> print(df.to_string())
                                   molecule                          target_desc  recorded_result
0  NC1=NC2(CCCC2)N(c2ccc(S(=O)(=O)Nc3nccs3)cc2)C(N)=N1  Carbonic anhydrase 2 (Homo sapiens)           < 5.00
1  COc1cc(/C=C/C(=O)OCCCN(CCCCCCOC(=O)c2c3ccccc3cc3ccccc23)CCCOc2ccc3ccc(=O)oc3c2)cc(OC)c1OC  Carbonic anhydrase 2 (Homo sapiens)           < 5.00
2              CCOC(=O)COc1ccc2oc(=O)ccc2c1  Carbonic anhydrase 2 (Homo sapiens)           < 5.00
3  COc1cc(/C=C/C(=O)OCCCCCN(C)CCCOC(=O)COc2ccc3ccc(=O)oc3c2)cc(OC)c1OC  Carbonic anhydrase 2 (Homo sapiens)           < 5.00
4  C[C@@H](NC(=O)OC(C)(C)C)C(=O)Nc1ccc2c(c1)NC(=O)CC2 (stereo in doubt)  Carbonic anhydrase 2 (Homo sapiens)           < 4.00

Task item: Give pKi only, for O=C1c2ccccc2C(=O)N1c1ccc(S(=O)(=O)Nc2cccc([N+](=O)[O-])c2)cc1 , using Carbonic anhydrase 2 (Homo sapiens) data.
Reply: < 5.00

----------
Header: Ki / Carbonic anhydrase 2 (Homo sapiens, UniProt P00918) / multiple publications

                                smiles_text  recorded_result
0  CC1(C)N=C(N)N=C(N)N1c1ccc(S(=O)(=O)Nc2nccs2)cc1          > 10 µM

Task item: Give Ki only, for O=C(COc1ccc2oc(=O)ccc2c1)NCCc1ccccc1 , using Carbonic anhydrase 2 (Homo sapiens, UniProt P00918) data.
Reply: > 10 µM

Task item: Give Ki only, for Cc1ccc(NCc2cn(-c3ccc4oc(=O)ccc4c3)nn2)cc1 , using Carbonic anhydrase 2 (Homo sapiens, UniProt P00918) data.
Reply: > 50 µM

Task item: Give Ki only, for COc1cc(/C=C/C(=O)OCCCCCN(CCCOC(=O)c2cc(OC)c(OC)c(OC)c2)CCCOc2ccc3ccc(=O)oc3c2)cc(OC)c1OC , using Carbonic anhydrase 2 (Homo sapiens, UniProt P00918) data.
Reply: > 10 µM

----------
pKi: −log10 of the molar value.
Header: pKi / UniProt:P00918 / multiple publications
measured_attribute: pKi

>>> df
                                   compound  measured_attribute  recorded_result
0  COc1ccc(NS(=O)(=O)c2ccc(Nc3ncc4c(n3)CCCC4=O)cc2)cc1                 pKi             4.30
1  Cc1ccc(NS(=O)(=O)c2ccc(Nc3ncc4c(n3)CC(c3ccccc3)CC4=O)cc2)cc1 (centres unmarked)                 pKi             4.89
2  CC(C)(C)OC(=O)N[C@H](Cc1ccccc1)C(=O)NCc1ccc(S(N)(=O)=O)cc1                 pKi             7.21
3  Cc1cccc2sc(NC(=O)CNC(=O)OCC3c4ccccc4-c4ccccc43)nc12                 pKi             4.06

P. NC1=NC2(CCCCC2)N(c2ccc(S(N)(=O)=O)cc2)C(N)=N1
Q. COc1ccc(-c2nc(Nc3cccc(C(=O)O)c3)c3ccccc3n2)cc1
Task item: Could you tell me which of these two has the smaller pKi figure? First: P Second: Q Could you answer with the label of the item you picked?
Reply: Q

----------
Header: Ki / Carbonic anhydrase 2 (Homo sapiens) / multiple publications

Answered cases to consult:
                                smiles_text  measured_attribute  recorded_result
0  NS(=O)(=O)c1ccc(-n2c(-c3ccc(Cl)cc3)nc(-c3ccccc3)c2-c2ccccc2)cc1                  Ki         > 100 µM
1  COc1cc(C(=O)OCCCCCCCN(CCCOC(=O)c2c3ccccc3cc3ccccc23)CCCOc2ccc3ccc(=O)oc3c2)cc(OC)c1OC                  Ki          > 10 µM
2       O=C(NC(=S)N1CCCCC1)c1cc2ccccc2oc1=O                  Ki          > 10 µM

Task item: Give Ki only, for COc1cc(/C=C/C(=O)OCCCCCCN(CCCOC(=O)c2c3ccccc3cc3ccccc23)CCCOc2ccc3ccc(=O)oc3c2)cc(OC)c1OC , using Carbonic anhydrase 2 (Homo sapiens) data.
Reply: > 10 µM

Task item: Give Ki only, for N#CCc1nc(N)nc(Nc2ccc(S(N)(=O)=O)cc2)n1 , using Carbonic anhydrase 2 (Homo sapiens) data.
Reply: 0.0492 µM

Task item: Give Ki only, for O=C(COc1ccc2ccc(=O)oc2c1)Nc1ccc(F)cc1 , using Carbonic anhydrase 2 (Homo sapiens) data.
Reply: > 10 µM

Task item: Give Ki only, for O=c1ccc2cc(-n3cc(CNc4ccccc4)nn3)ccc2o1 , using Carbonic anhydrase 2 (Homo sapiens) data.
Reply: > 50 µM
